- Test system: A498
- EXPERIMENTAL_DETAILS: NCI tumour cell line growth inhibition, 48 h
Active and inactive are the calls of the source. Rule as the data show it: active = GI50 up to about 1.1 µM and inactive = higher.
Tick one outcome: active, inactive

Exam item: How was O=C1NC2C(=CC(O)C(O)C2O)c2cc3c(cc21)OCO3 (stereo unspecified) classified in this test?
Marked response: active

Exam item: How was CCOC(=O)C(SCCO)C(C(=O)OCC)n1ccc(=O)[nH]c1=O (stereo unspecified) classified in this test?
Marked response: inactive

Exam item: How was Cc1ccc(C2[C@H]3C(=O)N(c4ccc(Cc5ccc(N6C(=O)[C@@H]7ON(c8ccccc8)C(c8ccc(C)cc8)[C@@H]7C6=O)cc5)cc4)C(=O)[C@H]3ON2c2ccccc2)cc1 (stereo partly specified) classified in this test?
Marked response: inactive

Exam item: How was `CCc1c(-c2coc(CC/C(C)=C/c3ccccc3)n2)oc(OC)c(C)c1=O` classified in this test?
Marked response: inactive

Exam item: How was `Cc1cccc(NC(=S)N/N=C2\C(=O)Nc3ccccc32)c1` classified in this test?
Marked response: inactive

Exam item: How was CC(=O)C1(/N=N/c2ccc(S(N)(=O)=O)cc2)CCOC1=O (stereo unspecified) classified in this test?
Marked response: inactive

Next:
Exam item: How was `Cc1ccc2c(C)c3ccc4ccccc4c3c[n+]2c1.[O-][Cl+3]([O-])([O-])[O-]` classified in this test?
Marked response: inactive

Exam item: How was `N#Cc1c(-c2ccccc2)c2c([nH]c1=O)-c1cc([N+](=O)[O-])ccc1CCC2` classified in this test?
Marked response: inactive

Exam item: How was CC1=C(c2ccc(C)cc2)NC(=S)C(C)C(c2ccc(C)cc2)=N1 (stereo unspecified) classified in this test?
Marked response: inactive

Exam item: How was C=C(Cl)C(Br)(CCl)CCC(Br)C(C)(C)Cl (stereo unspecified) classified in this test?
Marked response: inactive

Exam item: How was `C/C(CC(O)(C(F)(F)F)C(F)(F)F)=N/Nc1ccc([N+](=O)[O-])cc1[N+](=O)[O-]` classified in this test?
Marked response: inactive
